- tgt: Cloned human M1 receptor (CHRM1) stably expressed in HEK293 cells (Homo sapiens, UniProt P11229)
- Construct: expressed in transfected cells; host or cells: HEK293
- Sequence (P11229 whole entry): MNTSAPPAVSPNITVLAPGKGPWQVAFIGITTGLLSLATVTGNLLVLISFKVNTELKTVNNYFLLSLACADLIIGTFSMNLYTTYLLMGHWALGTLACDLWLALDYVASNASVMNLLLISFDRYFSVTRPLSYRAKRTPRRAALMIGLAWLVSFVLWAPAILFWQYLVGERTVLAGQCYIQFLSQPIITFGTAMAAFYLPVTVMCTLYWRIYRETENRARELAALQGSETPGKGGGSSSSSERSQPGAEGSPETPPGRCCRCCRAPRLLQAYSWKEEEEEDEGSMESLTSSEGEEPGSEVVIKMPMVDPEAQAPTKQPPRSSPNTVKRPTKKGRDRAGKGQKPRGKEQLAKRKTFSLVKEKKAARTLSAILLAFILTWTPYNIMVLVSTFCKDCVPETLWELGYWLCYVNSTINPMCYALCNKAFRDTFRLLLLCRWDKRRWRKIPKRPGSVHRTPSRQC
- procedure details: CHRM1 Ca++ Flux Assay (agonist mode, FDSS 7000EX)
- Assay type: cell-based
- test parameters: geometric mean if tested more than once
Mark criterion met for EC50 under 0.1 µM, criterion not met if at or over.

1. O[C@H]1CC[C@@H](c2ccccc2C2CCN([C@@H]3CCC4(C3)CN(c3nnco3)C4)CC2)CC1 (single isomer, unassigned) [Example 2N] :: criterion not met
2. CC(C)(O)COc1ccccc1C1CCN([C@@H]2CCC3(C2)CN(c2nnco2)C3)CC1 [Example 2A] :: criterion not met
3. COc1ccccc1C1CCN([C@@H]2CCC3(C2)CN(c2cccnc2)C3)CC1 [Example 5K] :: criterion not met
4. c1ccc(C2CCOC2)c(C2CCN([C@@H]3CCC4(C3)CN(c3nnco3)C4)CC2)c1 (stereo partly shown) [Example 2K] :: criterion not met
5. CC(C)COc1ccccc1C1CCN([C@@H]2CCC3(C2)CN(C(=O)C2COC2)C3)CC1 [Example 7F] :: criterion met
6. O=C(N1CC2(CC[C@@H](N3CCC(c4ccccc4OC4CC5(COC5)C4)CC3)C2)C1)C1(F)CC1 (single isomer, unassigned) [Example 11C] :: criterion not met

====

- tgt: human cloned CHRM2 receptor (M2_CHO cells) (Homo sapiens, UniProt P08172)
- Construct: expressed in transfected cells; host or cells: CHO-K1
- Sequence (P08172 whole entry): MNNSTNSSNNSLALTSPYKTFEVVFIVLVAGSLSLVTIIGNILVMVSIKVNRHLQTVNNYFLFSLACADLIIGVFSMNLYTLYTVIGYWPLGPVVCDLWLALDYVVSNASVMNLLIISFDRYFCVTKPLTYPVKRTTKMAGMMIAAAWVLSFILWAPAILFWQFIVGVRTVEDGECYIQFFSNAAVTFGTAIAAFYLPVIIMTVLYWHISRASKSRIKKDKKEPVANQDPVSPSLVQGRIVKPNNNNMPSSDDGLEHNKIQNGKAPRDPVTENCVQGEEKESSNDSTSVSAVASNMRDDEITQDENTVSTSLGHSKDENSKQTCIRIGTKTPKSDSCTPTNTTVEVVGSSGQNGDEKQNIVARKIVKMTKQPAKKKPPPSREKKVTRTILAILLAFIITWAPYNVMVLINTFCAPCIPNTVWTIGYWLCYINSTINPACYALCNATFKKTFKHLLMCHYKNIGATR
- procedure details: CHRM2 Ca++ Flux Assay (agonist mode, FDSS 7000EX)
- Type: cell-based
- test parameters: agonist mode; geometric mean if tested more than once; read-out: M2 FDSS EC50
pEC50: −log10 of the molar value.
measured quantity: pEC50

1) FC(F)(F)Oc1ccccc1C1CCN([C@@H]2CCC3(C2)CN(c2ncco2)C3)CC1 (single isomer, unassigned) [Example 10L] :: 4.88
2) CC(C)(O)COc1ccccc1C1CCN([C@@H]2CCC3(C2)CN(c2nncs2)C3)CC1 :: 6.52
3) CC(C)(F)COc1ccccc1C1CCN([C@@H]2CCC3(C2)CN(C(=O)C2COC2)C3)CC1 :: 6.19
4) c1ccc(C2CCOC2)c(C2CCN([C@@H]3CCC4(C3)CN(c3nnco3)C4)CC2)c1 (stereo partly drawn) :: 6.80
5) Fc1ccc(C2CCOCC2)c(C2CCN([C@@H]3CCC4(C3)CN(c3cncnc3)C4)CC2)c1 (single isomer, unassigned) [Example 10D] :: 6.30
6) c1ccc(C2CCN([C@@H]3CCC4(C3)CN(c3cncnc3)C4)CC2)c(OCC2CCOCC2)c1 :: 6.40
7) c1ccc(C2CCN([C@@H]3CCC4(C3)CN(c3cncnc3)C4)CC2)c(OCC2COC2)c1 :: 8.15
8) O=C(C1COC1)N1CC2(CC[C@@H](N3CCC(c4ccccc4OCC4(C(F)(F)F)CC4)CC3)C2)C1 :: 5.16

====

- tgt: human cloned CHRM2 receptor (M2_CHO cells) (Homo sapiens, UniProt P08172)
- Construct: expressed in transfected cells; host or cells: CHO-K1
- procedure details: CHRM2 Ca++ Flux Assay (agonist mode, FDSS 7000EX)
- Type: cell-based
- test parameters: agonist mode; geometric mean if tested more than once; read-out: M2 FDSS EC50
measured quantity: EC50 (nM)

1. O=C(C1COC1)N1CC2(CC[C@@H](N3CCC(c4ccccc4OCC(F)F)CC3)C2)C1 :: 98
2. c1ccc(C2CCN([C@@H]3CCC4(C3)CN(c3nnco3)C4)CC2)c(OC2CCOCC2)c1 :: 64
3. CC(C)(O)COc1ccccc1C1CCN([C@@H]2CCC3(C2)CN(c2nnco2)C3)CC1 :: 117
4. c1ccc(C2CCN([C@@H]3CCC4(C3)CN(c3nncs3)C4)CC2)c(OCC2COC2)c1 :: 75
5. OC1CCC(c2ccccc2C2CCN([C@@H]3CCC4(C3)CN(c3nnco3)C4)CC2)CC1 (single isomer, unassigned) :: 90
6. O=C(C1COC1)N1CC2(CC[C@@H](N3CCC(c4ccccc4OCC4CC4)CC3)C2)C1 :: 123
7. c1ccc(C2CCN([C@@H]3CCC4(C3)CN(c3nncs3)C4)CC2)c(OC2COC2)c1 :: 76

Reference for the values: patent US12122761B2
